For each record, write down the corresponding pEC50.
# tgt: human CaSR (Homo sapiens)
# Construct: expressed in transfected cells; host or cells: 293E cells (HEK293 cells expressing EBNA1, ATCC No. CRL-10852), transient transfection
# Sequence (P41180 20-1078): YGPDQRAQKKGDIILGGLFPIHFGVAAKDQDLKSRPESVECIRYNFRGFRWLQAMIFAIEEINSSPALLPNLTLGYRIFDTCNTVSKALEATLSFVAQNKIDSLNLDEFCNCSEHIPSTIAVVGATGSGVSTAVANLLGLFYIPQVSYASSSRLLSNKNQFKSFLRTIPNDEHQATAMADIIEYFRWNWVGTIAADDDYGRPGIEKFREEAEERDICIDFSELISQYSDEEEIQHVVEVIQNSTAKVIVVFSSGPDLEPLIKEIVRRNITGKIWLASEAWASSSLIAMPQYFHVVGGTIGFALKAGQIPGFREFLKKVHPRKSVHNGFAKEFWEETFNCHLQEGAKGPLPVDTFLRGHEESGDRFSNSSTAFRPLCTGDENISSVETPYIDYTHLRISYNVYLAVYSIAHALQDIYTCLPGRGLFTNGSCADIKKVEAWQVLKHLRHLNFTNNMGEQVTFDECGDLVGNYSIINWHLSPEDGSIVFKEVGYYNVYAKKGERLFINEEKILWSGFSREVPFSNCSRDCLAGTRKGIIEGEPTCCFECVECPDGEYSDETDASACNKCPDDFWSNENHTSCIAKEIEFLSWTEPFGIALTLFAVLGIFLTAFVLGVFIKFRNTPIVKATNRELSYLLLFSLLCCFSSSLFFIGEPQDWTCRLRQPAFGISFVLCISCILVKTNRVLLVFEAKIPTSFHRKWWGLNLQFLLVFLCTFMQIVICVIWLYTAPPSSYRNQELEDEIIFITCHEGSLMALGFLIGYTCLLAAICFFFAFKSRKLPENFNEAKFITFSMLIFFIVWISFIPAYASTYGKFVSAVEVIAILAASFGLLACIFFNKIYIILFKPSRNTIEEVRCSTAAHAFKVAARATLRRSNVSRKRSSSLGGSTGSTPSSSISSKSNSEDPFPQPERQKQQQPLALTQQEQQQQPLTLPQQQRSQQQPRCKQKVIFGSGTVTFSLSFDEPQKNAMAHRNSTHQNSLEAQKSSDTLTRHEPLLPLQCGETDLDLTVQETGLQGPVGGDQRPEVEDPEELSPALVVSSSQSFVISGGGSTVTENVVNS
# assay.info: Evaluation of CaSR agonist activity (Ca2+ fluorescence, FLIPR, 293E cells transfected with hCaSR/pcDNA3.1)
# Type: cell-based
# experimental.setup: 293E cells expressing human CaSR, 1.5 mM CaCl2 assay buffer, Table 5
Note on pEC50: it is the negative log10 of concentration, concentration in mol/L.

Prompt: Bench note: what pEC50 did N[C@@H](CCC(=O)N(O)c1cccc(S(=O)(=O)O)c1)C(=O)O show?
Response: 7.51

Prompt: Lookup N[C@@H](COC(=O)N(O)c1cccc(S(=O)(=O)O)c1)C(=O)O
Response: 7.37
